Target: T1, PRAME peptide on HLA-A*24:02 (human)
T1 peptide: PYLGQMINL
Test Protocol: SPR, equilibrium, 25 C; reduced peptide; soluble, with an engineered disulfide between the constant domains
Measurement Label: Kd (µM)
Report the value in µM with no unit label.

{"columns": ["Binder", "Kd, µM"],
 "data": [
  ["S4 (TCR) alpha TRAV12-2 CDR3: AVNGPNNAGNMLT beta TRBV6-2/3 CDR3: ASSPGGFGQPQH", 18.9],
  ["S1 (TCR) alpha TRAV24 CDR3: AFISWRSSGDKLT beta TRBV25 CDR3: ASSSPLSGPLASPLH", 85],
  ["S6 (TCR) alpha TRAV21 CDR3: AVPNPSARQLT beta TRBV7-9 CDR3: ASSLEGQGVEQF", 126]
]}

Summary for this binder, S5 (TCR) alpha TRAV12-2 CDR3: AVNKGFQKLV beta TRBV6-1 CDR3: ASSEGWGGQPQH : Kd is 14.5

Summary for this binder, S10 (TCR) alpha TRAV27 CDR3: GAIWSTLGRLY beta TRBV5-6 CDR3: SSFKGVNQPQH : Kd is 53
